Test system: SF-295
Protocol summary: NCI tumour cell line growth inhibition, 48 h
Calls of active or inactive are those of the source. Rule as the data show it: active = GI50 up to about 1.1 µM and inactive = higher.
Metric name: GI50

COc1cc(OC)c(OC)cc1/C=C1\C=Cc2ccccc21; 18.5 µM (inactive)
CCc1nc(N)nc(C(=O)NCCNC(=O)c2nc(N)nc(CC)c2C)c1C; > 100 µM (inactive)
CNC1=C(C)C(=O)C(C)=C(C(C)(C)CC(=O)n2cc(F)c(=O)[nH]c2=O)C1=O; > 67.9 µM (inactive)
C=CCON(C(=O)OC(C)(C)C)C(C)(C)C; > 100 µM (inactive)

response.value for CCOC(=O)C(=O)Nc1cccc(C)c1C (field: GI50) = > 100 µM (inactive)

Quick note, GI50 for CC(=O)N(C(C)=O)n1nc2c(n1)C(=O)c1ccccc1C2=O landed at > 100 µM (inactive)

Memo: CC[C@H](NC(=O)OC(C)(C)C)C(=O)NCP(=O)(OCc1ccc([N+](=O)[O-])cc1)OCc1ccc([N+](=O)[O-])cc1 , reported GI50: 13.7 µM (inactive)

In plain terms, O=C1COc2cc3c(cc2N1)SCC(=O)N3 has a documented GI50 of > 100 µM (inactive)

According to the records, this compound COc1ccc(N)c(C(O)CCNC(C)=O)c1 (stereo unspecified) displays GI50 of > 100 µM (inactive)

// GI50 lookup, compound = c1ccc(C[n+]2cccc(-c3cc4ccccc4[nH]3)c2)cc1 , result: 77.8 µM (inactive)

CCCCCCCCCC(O)CC(=O)c1c(O)cccc1O (stereo unspecified) yielded GI50 of 19.4 µM (inactive)

====

Overview of recorded GI50 for various compounds
System: M19-MEL
Protocol summary: NCI tumour cell line growth inhibition, 48 h
The source made the active and inactive calls. No stated cut-off is given here; in the data, active = GI50 up to about 1.1 µM and inactive = higher.

Worked examples, 2 compounds total:
COc1cc(OC)c(/C=C2\N=C(C)N(Nc3nnc(NN4C(=O)/C(=C/c5c(OC)cc(OC)cc5OC)N=C4C)c4ccccc34)C2=O)c(OC)c1; > 100 µM (inactive)
Nc1ccc(C(=O)CC2(O)C(=O)Nc3c(Cl)cc(Cl)cc32)cc1 (configuration not stated); 47 µM (inactive)

Form: item CCCCCCCCCCCCCc1nnn[nH]1 ; test system M19-MEL; GI50: 19.7 µM (inactive)

The observed GI50 for Nc1ccc(C(=O)NN2C(=O)C(Cl)C2c2cc(Br)ccc2O)cc1 (configuration not stated) when tested with M19-MEL stands at > 100 µM (inactive)

GI50 for M19-MEL with input COC(=O)NC(=O)c1cn(C2CCCCC2)c(=O)[nH]c1=O equals > 100 µM (inactive)

Considering NCCCCNc1ccc2c(=O)[nH][nH]c(=O)c2c1 , its GI50 with M19-MEL was recorded as > 100 µM (inactive)

Value sought: GI50, system M19-MEL, item COc1ccccc1/C=C(\C#N)C(=O)c1ccccc1 . Result: > 100 µM (inactive)

Case COC(=O)/C([Se]c1c(C)cc(C)cc1C)=C(\[Se]c1c(C)cc(C)cc1C)C(=O)OC , M19-MEL, GI50 recorded as > 100 µM (inactive)

M19-MEL assay, compound C=C1C(=O)O[C@@H]2[C@H]3O[C@]3(C)CCC=C(C)CC[C@@H]12 , recorded GI50 = 14.3 µM (inactive)

GI50 for M19-MEL with input CC(=O)c1ccccc1NC(=O)C(=O)C(C(=O)c1ccc2ccccc2c1)C1OC(=O)c2ccccc21 (configuration not stated) equals 8.85 µM (inactive)

Simply: CCCc1nc(N)nc(C(=O)Nc2cccc(C(F)(F)F)c2)c1CC , M19-MEL, GI50 = > 100 µM (inactive)

Noted GI50 for O=C(CCC(=O)Nc1ccc(Cl)c(Cl)c1)Cc1nc2ccccc2o1 , tested on M19-MEL: > 100 µM (inactive)

====

Test system: CCRF-CEM
Protocol summary: NCI tumour cell line growth inhibition, 48 h
Activity calls are given as the source filed them. No stated cut-off is given here; in the data, active = GI50 up to about 1.1 µM and inactive = higher.
// classify into active, inactive

Known results for molecules:
COc1cc2c(cc1O)CCN[C@@]21CS[C@H]2c3c(OC(C)=O)c(C)c4c(c3C(COC1=O)N1C2C2NC(Cc3cc(C)c(OC)c(O)c32)[C@@H]1C#N)OCO4 (stereo partly specified); active
C=CC[C@@]1(C#N)C[C@H](C[C@]2(C#N)C[C@H](CCl)OC(C)(C)O2)OC(C)(C)O1; inactive
CC(C)N(C(=O)C12C3C4C5C3C1(C(=O)N(C(C)C)C(C)C)C5(C#N)C42)C(C)C (stereo unspecified); inactive
CCC1(O)CC(OC2CC(N(C)C)C(OC3CC(O)C(OC4CCC(=O)C(C)O4)C(C)O3)C(C)O2)c2c(O)c3c(c(O)c2C1C(=O)OC)C(=O)c1cccc(O)c1C3=O (stereo unspecified); active
OC1CC(O)c2c(Cl)sc(Cl)c21 (stereo unspecified); inactive

In: Check the results log: what was the call for O=[N+]([O-])/C(C(Cl)=C(Cl)Cl)=C(/Nc1cccc2cccnc12)n1nnc2ccccc21 ?
Out: inactive

====

Tested on: SW-620
Protocol summary: NCI tumour cell line growth inhibition, 48 h
Active and inactive are the calls of the source. No stated cut-off is given here; in the data, active = GI50 up to about 1.1 µM and inactive = higher.
Please state which outcome applies, choosing from active, inactive

Record excerpt, results attached:
Nc1cc2[nH]cnc2c(=O)[nH]1; inactive
CCOC(=O)/C=C(/OCC)[C@@H]1C(C(=O)c2ccc(Cl)cc2)[C@@H]1/C(=C\C(=O)OCC)OCC (some centres undefined); inactive
O=C1C(=O)N(C2C3CC4CC(C3)CC2C4)C(=O)C(=O)C1c1nc2ccccc2o1 (centres undefined); inactive
COc1ccc(/C=C2\C[C@H]3[C@@H]4CCC5=CC(=O)CC[C@]5(C)[C@H]4CC[C@]3(C)C2=O)cc1OC; inactive
CCCCC(N)CSSCC(N)CCCC (centres undefined); inactive
Cc1ccc(C(=O)Nc2ccc(CP(=O)(O)O)cc2CP(=O)(O)O)cc1N; inactive

In: Tell me the recorded outcome of this test for CCOP(=O)(OCC)C1=C(c2ccccc2)OC(N)=C(C#N)C1c1ccc(Cl)cc1 (centres undefined) .
Out: inactive

In: // param item: O=C(O)COc1cc(-c2ccccc2)nc2ccccc12 ; yields the recorded call
Out: inactive

In: Fill in: this test's call for NCCn1cnc2nc(NC(=O)c3ccccc3)[nH]c(=O)c21 is ___
Out: inactive

In: Assay outcome for CCOC(=O)c1cc(=O)oc2c1N(C)c1ncccc1N2 : what was it?
Out: inactive

In: Field: outcome | Entry: COC(=O)Cc1c([C@@H]2Nc3ccccc3[C@H]2CC(=O)OC)[nH]c2ccccc12
Out: inactive

In: Record lookup: outcome of this test for CCOC(=O)c1[nH]cc(C)c1-c1ccc2c(-c3ccccc3)nc3ccccc3n12 ?
Out: inactive

====

# key: entry, value: GI50
Tested on: HOP-92
Protocol summary: NCI tumour cell line growth inhibition, 48 h
The source made the active and inactive calls. No stated cut-off is given here; in the data, active = GI50 up to about 1.1 µM and inactive = higher.

Nc1ccc(C(=O)NN2C(=O)C(Cl)C2c2cc(Br)ccc2O)cc1 (stereo not given); > 100 µM (inactive)

Param item: c1ccc(N2N=NC3C4CC(C5c6ccccc6C45)C32)cc1 (stereo not given) ; param system: HOP-92; output GI50: 19.1 µM (inactive)

# GI50 measured on HOP-92 for item COc1cc(OC)c(/C=C2\N=C(C)N(Nc3nnc(NN4C(=O)/C(=C/c5c(OC)cc(OC)cc5OC)N=C4C)c4ccccc34)C2=O)c(OC)c1 = > 100 µM (inactive)

Entry CN(NC(=O)c1cccs1)C1=NCCCN1 , tested on HOP-92, has a reported GI50 of > 100 µM (inactive)

Reported GI50 (HOP-92) for entry COC(=O)/C([Se]c1c(C)cc(C)cc1C)=C(\[Se]c1c(C)cc(C)cc1C)C(=O)OC is > 100 µM (inactive)

====

System: Hs-578T
Protocol summary: NCI tumour cell line growth inhibition, 48 h
Calls of active or inactive are those of the source. Cut-off read from the data, not from the text of the source: active = GI50 up to about 1.1 µM and inactive = higher.
Lab note: assign the record to one of active, inactive

Use the examples below as a reference point.
Cn1c2ccccc2c2c3c(c4c5ccccc5n(C5OC(CO)C(O)C(O)C5O)c4c21)C(=O)OC3=O (configuration not stated); inactive
[O-][S+](Nc1ccccc1)c1cccc(Cl)c1 (configuration not stated); inactive
COC1=C(C)C(=O)C2=C(C1=O)C1C3CC4=C(C(=O)C(OC)=C(C)C4=O)C(CNC(=O)C(C)=O)N3C(C#N)C(C2)N1C (configuration not stated); active
Nn1c(=O)[nH]c2ncn(Cc3ccccc3)c2c1=O; inactive

In: # outcome recorded in this test, key = CCOC(=O)/C(=C/c1cn(C(C)=O)c2ccccc12)P(=O)(OC)OC
Out: inactive

In: I would be grateful if you could indicate the recorded call for O=C(O)c1ccc(NNc2cc(=O)[nH]c(=O)[nH]2)cc1 .
Out: inactive

In: Tell me the assay call for C=CCON(C(=O)OC(C)(C)C)C(C)(C)C please.
Out: inactive

In: # outcome recorded in this test, key = Cn1ccc(C(=O)NCCCCCNC(=O)c2ccn(C)c(=O)c2O)c(O)c1=O
Out: inactive

In: Answer briefly: the call reported for Cc1ccc(S(=O)(=O)n2cncc2CO)cc1 in this assay.
Out: inactive
